As a worked illustration, we turn to IC50 data collected for POLRMT (Homo sapiens (Human)).
Metric Name: IC50 (nM)

A = COC1CCN(c2ccc3c(-c4ccccc4C)cc(=O)oc3n2)C1 (racemic) [Example 07]
B = CNC(=O)CN(C)c1ccc2c(-c3ccc(F)cc3Cl)cc(=O)oc2n1
Returns: the label, A or B , whose recorded IC50 is the lower number. Identify your selection by its label. A

I = Cc1ccccc1-c1cc(=O)oc2nc(N3CCC(N(C)C)C3)ccc12 (stereo not shown)
II = Cc1ccccc1-c1cc(=O)oc2nc(N3CCC3)ccc12
III = CNC(=O)CCN(C)c1ccc2c(-c3ccc(F)cc3Cl)cc(=O)oc2n1
IV = CN(CCC(=O)O)c1ccc2c(-c3ccc(F)cc3Cl)cc(=O)oc2n1
V = Cc1ccccc1-c1cc(=O)oc2nc(N3CCC(C(N)=O)C3)ccc12 (racemic) [Example 16]
Rank entries according to their IC50, from the largest number down. Reply format: the labels, ordered as requested. III, I, IV, V, II

---

# Experimental System: POLRMT (Homo sapiens (Human))
# Sequence (O00411 42-1230): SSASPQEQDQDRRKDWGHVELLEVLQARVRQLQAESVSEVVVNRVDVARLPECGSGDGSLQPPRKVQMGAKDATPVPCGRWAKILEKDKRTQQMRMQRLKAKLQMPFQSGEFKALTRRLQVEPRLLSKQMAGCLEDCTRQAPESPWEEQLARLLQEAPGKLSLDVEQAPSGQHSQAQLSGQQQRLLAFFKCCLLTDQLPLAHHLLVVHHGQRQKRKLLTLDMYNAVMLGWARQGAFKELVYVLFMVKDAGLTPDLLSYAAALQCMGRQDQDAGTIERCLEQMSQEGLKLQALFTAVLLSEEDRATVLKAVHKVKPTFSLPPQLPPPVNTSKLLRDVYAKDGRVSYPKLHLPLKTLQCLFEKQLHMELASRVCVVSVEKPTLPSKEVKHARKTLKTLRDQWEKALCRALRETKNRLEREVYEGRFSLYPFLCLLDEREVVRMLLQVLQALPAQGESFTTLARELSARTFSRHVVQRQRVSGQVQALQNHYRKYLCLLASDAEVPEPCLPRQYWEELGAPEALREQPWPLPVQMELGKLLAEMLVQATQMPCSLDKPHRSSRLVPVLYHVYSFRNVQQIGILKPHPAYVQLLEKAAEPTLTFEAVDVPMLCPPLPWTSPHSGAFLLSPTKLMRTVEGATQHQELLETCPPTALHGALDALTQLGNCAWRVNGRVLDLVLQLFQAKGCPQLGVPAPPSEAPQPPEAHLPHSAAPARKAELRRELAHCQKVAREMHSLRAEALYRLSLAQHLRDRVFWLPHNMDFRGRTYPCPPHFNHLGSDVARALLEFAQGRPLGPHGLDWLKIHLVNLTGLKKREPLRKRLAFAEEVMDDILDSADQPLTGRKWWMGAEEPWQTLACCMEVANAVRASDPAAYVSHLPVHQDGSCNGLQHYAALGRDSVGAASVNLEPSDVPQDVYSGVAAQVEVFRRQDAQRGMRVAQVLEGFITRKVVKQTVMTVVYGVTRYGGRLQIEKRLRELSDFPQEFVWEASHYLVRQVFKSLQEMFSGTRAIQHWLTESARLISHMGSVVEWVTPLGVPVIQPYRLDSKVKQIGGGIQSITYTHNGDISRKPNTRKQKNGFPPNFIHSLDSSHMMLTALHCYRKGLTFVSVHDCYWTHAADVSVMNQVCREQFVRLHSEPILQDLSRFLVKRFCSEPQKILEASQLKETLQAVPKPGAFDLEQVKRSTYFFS
Metric Name: IC50 (nM)

Check out these entries, answers already filled in.
>>> observed_measurement("COC1CCN(c2ccc3c(-c4ccc(F)cc4Cl)cc(=O)oc3n2)C1 (single isomer, unassigned)")
21000
>>> observed_measurement("Cc1ccccc1-c1cc(=O)oc2nc(N3CCC(C(N)=O)C3)ccc12 (single isomer, unassigned) [Example 30]")
900
>>> observed_measurement("Cc1ccccc1-c1cc(=O)oc2nc(N3CCC(F)(F)C3)ccc12")
600

P = COC1CCN(c2ccc3c(-c4ccccc4C)cc(=O)oc3n2)C1 (single isomer, unassigned) [Example 23]
Q = Cc1ccccc1-c1cc(=O)oc2nc(N(C)C)ccc12
R = CC(=O)NC1CCN(c2ccc3c(-c4ccccc4C)cc(=O)oc3n2)C1 (centres unmarked)
Order the entries by their reported IC50, beginning at the minimum. Reply format: the labels, ordered as requested. P, Q, R
(P: 90 nM, Q: 1000 nM, R: 3000 nM)

I = COCC1CCN(c2ccc3c(-c4ccccc4C)cc(=O)oc3n2)C1 (single isomer, unassigned) [Example 32]
II = CNC(=O)CCN(C)c1ccc2c(-c3ccccc3C)cc(=O)oc2n1
Task for the reader: decide whether I or II has the larger IC50. Identify your selection by its label. II
(II: 7000 nM, I: 1000 nM)

---

As a worked illustration, we turn to IC50 data collected for POLRMT (Homo sapiens (Human)).
Metric Name: IC50 (nM)

>>> observed_measurement("O=c1cc(-c2ccc(F)cc2Cl)c2ccc(N3CCOCC3)nc2o1")
3000

a = CN(CCC(N)=O)c1ccc2c(-c3ccc(F)cc3Cl)cc(=O)oc2n1
b = Cc1ccccc1-c1cc(=O)oc2nc(N3CCCC3)ccc12
Task for the reader: decide whether a or b has the larger IC50. Identify your selection by its label. a

P = CCN(C)c1ccc2c(-c3ccccc3C)cc(=O)oc2n1
Q = Cc1ccccc1-c1cc(=O)oc2nc(N3CCC(C)(O)C3)ccc12 (single isomer, unassigned)
Returns: the label, P or Q , whose recorded IC50 is the lower number. Identify your selection by its label. P
(P: 400 nM, Q: 1000 nM)

---

# Experimental System: POLRMT (Homo sapiens (Human))
pIC50: −log10 of the molar value.
Metric Name: pIC50

>>> observed_measurement("COCC1CCN(c2ccc3c(-c4ccccc4C)cc(=O)oc3n2)C1 (single isomer, unassigned) [Example 31]")
6.40
>>> observed_measurement("Cc1ccccc1-c1cc(=O)oc2nc(N(C)CC(N)=O)ccc12")
6.30

Data provenance is patent US20250066377A1.
